Hey, just so you know, these numbers are from ChEMBL document CHEMBL2146376.

- Tested on: Staphylococcus aureus
- assay explanation: Antibacterial activity against Staphylococcus aureus ATCC 29213 after 24 hrs by broth dilution method
- Format: functional
- particulars: ATCC 29213, 24 h
Square brackets hold non-standard residues; d marks the D form. Peptide text beside a SMILES is read from it. Orn = NCCC[C@H](N)C(=O)O
Please go through the items and note down their MIC.
One number for each entry, in µg/mL.

CC(C)C[C@@H]1NC(=O)[C@H](CCCN)NC(=O)[C@@H]2CCCN2C(=O)[C@@H](Cc2ccccc2)NC(=O)[C@H](CCCN)NC(=O)[C@H](CC23CC4CC(CC(C4)C2)C3)NC(=O)[C@H](CCCN)NC(=O)[C@@H]2CCCN2C(=O)[C@@H](Cc2ccccc2)NC(=O)[C@H](CCCN)NC1=O = 64

Now let's try a different one.
Could you share what MIC was measured for CC(C)C[C@@H]1NC(=O)[C@H](CCCN)NC(=O)[C@H](C(C)C)NC(=O)[C@@H]2CCCN2C(=O)[C@@H](Cc2ccccc2)NC(=O)[C@H](CC(C)C)NC(=O)[C@H](CCCN)NC(=O)[C@H](C(C)C)NC(=O)[C@@H]2CCCN2C(=O)[C@@H](Cc2ccccc2)NC1=O [GRAMICIDIN S] (cyclo(L[dF]PV[Orn]L[dF]PV[Orn])) , tested on Staphylococcus aureus?
8

---

What MIC was measured for each of the following?
- Tested on: Staphylococcus epidermidis
- assay explanation: Antibacterial activity against Staphylococcus epidermidis ATCC 12228 after 24 hrs by broth dilution method
- Format: functional
- particulars: ATCC 12228, 24 h
One number for each entry, in µg/mL.

CCCCCCCCCC[C@@H]1NC(=O)[C@H](CCCN)NC(=O)[C@@H]2CCCN2C(=O)[C@@H](Cc2ccccc2)NC(=O)[C@H](CCCN)NC(=O)[C@H](C(C)C)NC(=O)[C@H](CCCN)NC(=O)[C@@H]2CCCN2C(=O)[C@@H](Cc2ccccc2)NC(=O)[C@H](CCCN)NC1=O = 8

Okay, here is my list. What is MIC for each of these?
1. NCCC[C@@H]1NC(=O)[C@H](CC23CC4CC(CC(C4)C2)C3)NC(=O)[C@H](CCCN)NC(=O)[C@@H]2CCCN2C(=O)[C@@H](Cc2ccccc2)NC(=O)[C@H](CCCN)NC(=O)[C@H](CC23CC4CC(CC(C4)C2)C3)NC(=O)[C@H](CCCN)NC(=O)[C@@H]2CCCN2C(=O)[C@@H](Cc2ccccc2)NC1=O
2. CC(C)C[C@@H]1NC(=O)[C@H](CCCN)NC(=O)[C@@H]2CCCN2C(=O)[C@@H](Cc2ccccc2)NC(=O)[C@H](CCCN)NC(=O)[C@H](CC(C)(C)C)NC(=O)[C@H](CCCN)NC(=O)[C@@H]2CCCN2C(=O)[C@@H](Cc2ccccc2)NC(=O)[C@H](CCCN)NC1=O
3. CC(C)C[C@@H]1NC(=O)[C@H](CCCN)NC(=O)[C@@H]2CCCN2C(=O)[C@@H](Cc2ccccc2)NC(=O)[C@H](CCCN)NC(=O)[C@H](CC23CC4CC(CC(C4)C2)C3)NC(=O)[C@H](CCCN)NC(=O)[C@@H]2CCCN2C(=O)[C@@H](Cc2ccccc2)NC(=O)[C@H](CCCN)NC1=O
4. CC(C)C[C@@H]1NC(=O)[C@H](CCCN)NC(=O)[C@@H]2CCCN2C(=O)[C@@H](Cc2ccccc2)NC(=O)[C@H](CCCN)NC(=O)[C@H](CC(C)C)NC(=O)[C@H](CCCN)NC(=O)[C@@H]2CCCN2C(=O)[C@@H](Cc2ccccc2)NC(=O)[C@H](CCCN)NC1=O
5. CC(C)(C)[C@@H]1NC(=O)[C@H](CCCN)NC(=O)[C@@H]2CCCN2C(=O)[C@@H](Cc2ccccc2)NC(=O)[C@H](CCCN)NC(=O)[C@H](C(C)(C)C)NC(=O)[C@H](CCCN)NC(=O)[C@@H]2CCCN2C(=O)[C@@H](Cc2ccccc2)NC(=O)[C@H](CCCN)NC1=O

[4, 16, 4, 64, 64]

Looking for the measured MIC of CC(C)(C)C[C@@H]1NC(=O)[C@H](CCCN)NC(=O)[C@@H]2CCCN2C(=O)[C@@H](Cc2ccccc2)NC(=O)[C@H](CCCN)NC(=O)[C@H](CC23CC4CC(CC(C4)C2)C3)NC(=O)[C@H](CCCN)NC(=O)[C@@H]2CCCN2C(=O)[C@@H](Cc2ccccc2)NC(=O)[C@H](CCCN)NC1=O , can you help?
4

---

Assign MIC to each entry below.
- Test system: Escherichia coli
- assay explanation: Antibacterial activity against Escherichia coli ATCC 25922 after 24 hrs by broth dilution method
- Assay type: functional
- particulars: ATCC 25922, 24 h

CC(C)(C)[C@@H]1NC(=O)[C@H](CCCN)NC(=O)[C@@H]2CCCN2C(=O)[C@@H](Cc2ccccc2)NC(=O)[C@H](CCCN)NC(=O)[C@H](C(C)(C)C)NC(=O)[C@H](CCCN)NC(=O)[C@@H]2CCCN2C(=O)[C@@H](Cc2ccccc2)NC(=O)[C@H](CCCN)NC1=O = > 64 µg/mL

Please supply MIC for each of the following items, keeping them in order.
1. CC(C)[C@@H]1NC(=O)[C@H](CCCN)NC(=O)[C@@H]2CCCN2C(=O)[C@@H](Cc2ccccc2)NC(=O)[C@H](CCCN)NC(=O)[C@H](C(C)C)NC(=O)[C@H](CCCN)NC(=O)[C@@H]2CCCN2C(=O)[C@@H](Cc2ccccc2)NC(=O)[C@H](CCCN)NC1=O
2. CC(C)C[C@@H]1NC(=O)[C@H](CCCN)NC(=O)[C@@H]2CCCN2C(=O)[C@@H](Cc2ccccc2)NC(=O)[C@H](CCCN)NC(=O)[C@H](CC(C)(C)C)NC(=O)[C@H](CCCN)NC(=O)[C@@H]2CCCN2C(=O)[C@@H](Cc2ccccc2)NC(=O)[C@H](CCCN)NC1=O
3. CC(C)(C)C[C@@H]1NC(=O)[C@H](CCCN)NC(=O)[C@@H]2CCCN2C(=O)[C@@H](Cc2ccccc2)NC(=O)[C@H](CCCN)NC(=O)[C@H](CC23CC4CC(CC(C4)C2)C3)NC(=O)[C@H](CCCN)NC(=O)[C@@H]2CCCN2C(=O)[C@@H](Cc2ccccc2)NC(=O)[C@H](CCCN)NC1=O

["> 64 µg/mL", "> 64 µg/mL", "16 µg/mL"]

---

- assay explanation: Toxicity in human erythrocytes assessed as concentration required to achieve 100% hemolysis after 4 hrs
- Type: cell-based
- particulars: erythrocyte
Square brackets hold non-standard residues; d marks the D form. Peptide text beside a SMILES is read from it. Gly(1-adamantyl) = N[C@H](C(=O)O)C12CC3CC(CC(C3)C1)C2; Orn = NCCC[C@H](N)C(=O)O
property measured: Activity (µM)
Give bare numbers, in µM.

Recorded results for 5 molecules are shown here.
CC(C)(C)C[C@@H]1NC(=O)[C@H](CCCN)NC(=O)[C@@H]2CCCN2C(=O)[C@@H](Cc2ccccc2)NC(=O)[C@H](CCCN)NC(=O)[C@H](CC23CC4CC(CC(C4)C2)C3)NC(=O)[C@H](CCCN)NC(=O)[C@@H]2CCCN2C(=O)[C@@H](Cc2ccccc2)NC(=O)[C@H](CCCN)NC1=O = 500
CCCCCCCCCC[C@@H]1NC(=O)[C@H](CCCN)NC(=O)[C@@H]2CCCN2C(=O)[C@@H](Cc2ccccc2)NC(=O)[C@H](CCCN)NC(=O)[C@H](CCCCCCCCCC)NC(=O)[C@H](CCCN)NC(=O)[C@@H]2CCCN2C(=O)[C@@H](Cc2ccccc2)NC(=O)[C@H](CCCN)NC1=O = 62.5
CC(C)C[C@@H]1NC(=O)[C@H](CCCN)NC(=O)[C@H](C(C)C)NC(=O)[C@@H]2CCCN2C(=O)[C@@H](Cc2ccccc2)NC(=O)[C@H](CC(C)C)NC(=O)[C@H](CCCN)NC(=O)[C@H](C(C)C)NC(=O)[C@@H]2CCCN2C(=O)[C@@H](Cc2ccccc2)NC1=O [GRAMICIDIN S] (cyclo(L[dF]PV[Orn]L[dF]PV[Orn])) = 31.3
NCCC[C@@H]1NC(=O)[C@H](CC23CC4CC(CC(C4)C2)C3)NC(=O)[C@H](CCCN)NC(=O)[C@@H]2CCCN2C(=O)[C@@H](Cc2ccccc2)NC(=O)[C@H](CCCN)NC(=O)[C@H](CC23CC4CC(CC(C4)C2)C3)NC(=O)[C@H](CCCN)NC(=O)[C@@H]2CCCN2C(=O)[C@@H](Cc2ccccc2)NC1=O = 62.5
NCCC[C@@H]1NC(=O)[C@H](C23CC4CC(CC(C4)C2)C3)NC(=O)[C@H](CCCN)NC(=O)[C@@H]2CCCN2C(=O)[C@@H](Cc2ccccc2)NC(=O)[C@H](CCCN)NC(=O)[C@H](C23CC4CC(CC(C4)C2)C3)NC(=O)[C@H](CCCN)NC(=O)[C@@H]2CCCN2C(=O)[C@@H](Cc2ccccc2)NC1=O (cyclo([Orn][dF]P[Orn][Gly(1-adamantyl)][Orn][dF]P[Orn][Gly(1-adamantyl)])) = 500

Request the reported Activity associated with CCCCCCCCCC[C@@H]1NC(=O)[C@H](CCCN)NC(=O)[C@@H]2CCCN2C(=O)[C@@H](Cc2ccccc2)NC(=O)[C@H](CCCN)NC(=O)[C@H](C(C)C)NC(=O)[C@H](CCCN)NC(=O)[C@@H]2CCCN2C(=O)[C@@H](Cc2ccccc2)NC(=O)[C@H](CCCN)NC1=O
500
